Substrate: F protein of hMPV B virus (human metapneumovirus subtype B)
Assay: cell-based or functional assay
For each of the binders below, state its PRNT IC50.
One number for each entry, in µg/mL.

INSERT INTO assay_data (binder, endpoint_name, units_of_measure, reading) VALUES
  ('M3D09 (antibody, V domains shown) VH: QVQLVESGGGVVQSGKSLGLSCIASGFIFSNYALHWVRQAPGKGLEWLSVISYDGTNKYYANSVRGRFTVSRDNSKNTLFLHMNSLGVDDTAMYYCARDPERLADLGRMDFWGRGTLVAVLS VL: DIVMTQSPDSLAVSLGERATINCKSSQSVLFSPNNKNYLAWYQQKPGQPPKLLIYWASTREYGVPERFSGSGSGTDFTLTISSLQAEDVAVYYCQQYNSNPYTFGQGTKLEIR', 'PRNT IC50', 'µg/mL', 0.28),
  ('M3D12 (antibody, V domains shown) VH: QVQLQESGPGLVKPSQTLSLTCTVSGASVSSEYYYWSWIRQPPGKGLEWIGYIYHNGDTYYNPSLKGRGIISMDTSKNQFSLKLISVTAADTAVYYCARLAVAGVTGFHYWGLGTLVTVSS VL: EIVLTQSPDTLSLSPGERATLSCRASRSVRNYLAWYQQKPGQAPRLLIYDASNRAPGIPARFSGSGSETDFTLTISSLEPEDFAVYYCQQRSNWGLTFGGGTKVEIK', 'PRNT IC50', 'µg/mL', 0.0145),
  ('M4B04 (antibody, V domains shown) VH: QVQLVESGGGVVQPGKSLRLSCAASGFTFRSYTMFWVRQAPGKGLEWVAIILHDGTNRYYTDSVKGRFTISRDNTKNTVYLQMNSLRPEDTAMYYCARESLEWMLDWGQGTLVTVSS VL: EIVMTQSPATLSVSPGERATLSCRASQSLSGNLAWFQQKPGQAPRLLIYGTSTRATGIPARFSGSGSGTEFTLTISSLQSEDFAVYYCQQYNNWPPVFTFGPGTKVDIK', 'PRNT IC50', 'µg/mL', 1.97),
  ('M2D07 (antibody, V domains shown) VH: QVQLVESGGAVVQPGRSLRLSCAASGFTFTSFSMHWVRQAPGRGLEWVAVISHDGIIKYYADSVKGRFTISRDNSKNTVFLQMNSLRPEDTAVFYCARDFPGSRGFFRYYFDHWGQGTLVTVSS VL: DIQMTQSPSSLSASVGGSVTITCRVDQSISNDLHWYQQKPGKAPKLLISSASSLQSGVPSRFSGSGSGTDFTLTITSLQPEDFATYYCQQSYTTPPLFGQGTTLEIK', 'PRNT IC50', 'µg/mL', 2.5),
  ('M4C02 (antibody, V domains shown) VH: QLQLQESGPRLVKPSETLSLTCSVSGGSISSSSLYWGWIRQSPGKGLEWIGTIYYGGSSDYNPSLKSRLTMSVDTSKNHFSLRLSSVTAADTAVYYCARVGSPVTTTVWFDPWGQGTLVTVSS VL: DIQMTQSPSSLAASIGDRVTITCRASQTISTYLNWYQQKPGKAPKLLIYAASTLQSGVPSRFSGSGSGTDFTLTISSLQPEDFATYYCQQTYSSLALTFGGGTKVEIR', 'PRNT IC50', 'µg/mL', 0.173),
  ('M2E06 (antibody, V domains shown) VH: EVQLVESGGDLVQPGGSLRLSCEASAFTFSDYAMTWVRQAPGKGLEWVSSINTSGGRTYYADSVKGRFTISRDNSKNTLYLQMKSLRAEDTAVYFCARFFYVMDVWGQGTTVTVSS VL: AIQMTQSPSSLSASVGDRVTITCRASQGVRNDLGWYQQKPGKAPKLLINAASGLQSGVPSRFSGSGSDTDFTLTISSLQPEDFATYYCLQVYSYPFTFGPGTKVDIK', 'PRNT IC50', 'µg/mL', 0.139);

With those in mind, consider the next binder.
Request the reported PRNT IC50 associated with M4B01 (antibody, V domains shown) VH: EVQLLESGGGLVQPGGSLRLSCAASGFNFNTYAMSWVRQAPGKGLKWISTISGSGGVKYYADSVKGRFTISRDNSGSILYLQMNRLRADDTAVYYCAKSQNPQLVFFDSFDMWGQGSMVTVSS VL: QSVLTQAPSASAAPGQKVTISCSGSTSNIGNSYVSWYQQVPGTAPKLLIYEDNQRPSGIPDRFSGSKSGTSATLGITGLQTGDEADYYCGTWDNSLTEVVFGGGTKLTVL
0.0628
